Values from PubChem BioAssay (NCI)

Tested on: HOP-62 NSCLC
assay-details: NCI-60 one-dose screen, 48 h (100 = growth as untreated, 0 = no growth, -100 = all killed)
cond: 10 µM unless noted
Description: Growth inhibition of the HOP-62 human Non-Small Cell Lung tumor cell line is measured as a screen for anti-cancer activity. Cells are grown in 96 well plates and exposed to the test compound for 48 hours. Compounds are tested at a single concentration, which is 10^-5 M for most compounds. The reported endpoint is percent growth (GI% or GIPRCNT), where numbers from 0 - 100% represent growth inhibition, and numbers from -100% - 0 represent cell death. […]
The panel holds about 83,000 compounds, 20% with a hit somewhere; the sample as a whole holds those more often.
Exercise: state measured growth for each of the molecules provided.
Form entry: value (%) — number only.

OCCCc1n(Cc2ccc3ccccc3c2)c2ccccc2[n+]1Cc1ccc2ccccc2c1 yielded growth of 37.5

CCCCNCCCN(CCCC)CCCNCCCC yielded growth of 94.9

COc1cccc2c1C(=O)c1c(O)c3c(c(O)c1C2=O)C[C@@](O)(C(C)=O)C[C@@H]3O[C@H]1C[C@H](N)[C@H](O)[C@H](C)O1 yielded growth of -50.2

COc1ccc(CCN2C(=O)CCC3=C2CCCC3=O)cc1OC yielded growth of 95.3

CCCn1c(N)c(C(=O)CNc2ccc(I)cc2)c(=O)[nH]c1=O yielded growth of 54.9

###

Tested on: SNB-75 CNS
assay-details: NCI-60 one-dose screen, 48 h (100 = growth as untreated, 0 = no growth, -100 = all killed)
cond: 10 µM unless noted
Compounds without any hit were thinned out: in the full panel of roughly 83,000, 20% have a hit.
parameter-measured: growth (%)
Form entry: value (%) — number only.

Response field growth (SNB-75 CNS) for item CC(NC(=O)Oc1cccc2ccccc12)c1ccccc1 (centres undefined) : 87.4

Response field growth (SNB-75 CNS) for item CC1=C([Se]CC(OC(=O)[C@@H](CSSC(C)(C)C)NC(=O)C(C)(C)C)C(=O)NCCCCCC(=O)OCc2ccccc2)C(=O)c2ccccc2C1=O (some centres undefined) : -92.5

Response field growth (SNB-75 CNS) for item CCCCCCC(CC#N)(CCC)CCCC (centres undefined) : 88.7

Response field growth (SNB-75 CNS) for item CCSc1nc(-c2cccs2)n2nc(-c3ccco3)cc2n1 : 84.2

Response field growth (SNB-75 CNS) for item O=C(Nc1ccccc1S)c1ccccc1 : 81.7

Response field growth (SNB-75 CNS) for item Cc1ccc(S(=O)(=O)N2CCN(C(=O)CSc3nc4ccc(C)cc4[nH]3)CC2)cc1 : 109

Response field growth (SNB-75 CNS) for item COc1ccc2nc(N/N=C(\C)c3ccccn3)cc(C)c2c1 : -7.43

Response field growth (SNB-75 CNS) for item O=c1ncc(-c2ccc(C(F)(F)F)cc2)c(NC2CCCCCC2)[nH]1 : 87

Response field growth (SNB-75 CNS) for item C[C@H]1O[C@@H](O[C@H]2[C@@H](O)C[C@H](O[C@H]3[C@@H](O)C[C@H](O[C@H]4CC[C@]5(C)C6C[C@@H](O)[C@]7(C)[C@@H](C8=CC(=O)OC8)CC[C@]7(O)C6CC[C@@H]5C4)O[C@@H]3C)O[C@@H]2C)C[C@H](O)[C@@H]1O (some centres undefined) : -75.6
